Target of assay: HCV cap-independent translation
Method description: In vitro translation assay, FF-HCV-Ren construct, cap-independent (Ren luciferase)
Item-by-item account of IC50

Compound: O=C(/C=C/c1nc2ccccc2n1Cc1ccccc1)c1c(-c2ccccc2)c2cc(Cl)ccc2n(Cc2ccccc2)c1=O [Compound 56]
Target of assay: HCV cap-independent translation
IC50: 2 to 10 µM
//
Compound: O=C(/C=C/c1ccc(C(F)(F)F)cc1)c1c(-c2ccccc2)c2cc(Cl)ccc2[nH]c1=O [Compound 39]
Target of assay: HCV cap-independent translation
IC50: 10 to 20 µM
//
Compound: Cc1ccc(/C=C/C(=O)c2c(-c3ccccc3)c3cc(Cl)ccc3[nH]c2=O)cc1 [Compound 34]
Target of assay: HCV cap-independent translation
IC50: 2 to 10 µM
//
Compound: COc1ccnc(/C=C/C(=O)c2c(-c3ccccc3)c3cc(Cl)ccc3[nH]c2=O)c1 [Compound 75]
Target of assay: HCV cap-independent translation
IC50: 2 to 10 µM

###

Listed below: IC50 values for each entry.
Target of assay: EmCV Cap-dependent translation
Method description: In vitro translation assay, FF-EmCV-Ren construct, cap-dependent (FF luciferase)
Outcome measure: IC50

Smiles: COc1cncc(/C=C/C(=O)c2c(-c3ccccc3)c3cc(Cl)ccc3[nH]c2=O)c1
Outcome measure: IC50
Result: 2 to 10 µM
--
Smiles: O=C(/C=C/c1nc2ccccc2[nH]1)c1c(-c2ccc(OC(F)(F)F)cc2)c2cc(Cl)ccc2[nH]c1=O
Outcome measure: IC50
Result: 2 to 10 µM
--
Smiles: O=C(/C=C/c1ccccn1)c1c(-c2ccc(F)cc2)c2cc(Cl)ccc2[nH]c1=O
Outcome measure: IC50
Result: 2 to 10 µM
--
Smiles: O=C(CCc1nc2ccccc2[nH]1)c1c(-c2ccccc2)c2cc(Cl)ccc2[nH]c1=O
Outcome measure: IC50
Result: > 20 µM
--
Smiles: Cc1ccnc(/C=C/C(=O)c2c(-c3ccccc3)c3cc(Cl)ccc3[nH]c2=O)c1
Outcome measure: IC50
Result: 2 to 10 µM
--
Smiles: Cc1ccc(-c2c(C(=O)/C=C/c3nc4ccccc4[nH]3)c(=O)[nH]c3ccc(Cl)cc23)cc1
Outcome measure: IC50
Result: 2 to 10 µM
--
Smiles: O=C(/C=C/c1cc(Cl)ccn1)c1c(-c2ccccc2)c2cc(Cl)ccc2[nH]c1=O
Outcome measure: IC50
Result: > 20 µM
--
Smiles: CCn1c(/C=C/C(=O)c2c(-c3ccccc3)c3cc(Cl)ccc3n(CC)c2=O)nc2ccccc21
Outcome measure: IC50
Result: > 20 µM

###

Documented Hepatic Microsome Stability (% remaining at 1 Hr) Mouse across a set of compounds
Method description: Hepatic Microsome Stability Mouse
Type: in vitro ADME
Outcome measure: Hepatic Microsome Stability (% remaining at 1 Hr) Mouse (% remaining)

Compound: O=C(/C=C/c1nc2ccccc2[nH]1)c1c(O)nc2ccc(Cl)cc2c1-c1ccccc1 [BI-69A11, reference compound]
Quantitative readout: 48.54
--
Compound: O=C(/C=C/c1ccccc1)c1c(C2CCCCC2)c2cc(Cl)ccc2[nH]c1=O [Compound 12]
Quantitative readout: 32.98
--
Compound: O=C(/C=C/c1nc2cc(Cl)ccc2[nH]1)c1c(-c2ccccc2)c2cc(Cl)ccc2[nH]c1=O [Compound 62]
Quantitative readout: 85.64
--
Compound: O=C(/C=C/c1cncc(F)c1)c1c(-c2ccccc2)c2cc(Cl)ccc2[nH]c1=O [Compound 38]
Quantitative readout: 38.69
